system: Calu-3; assay: cell viability relative to DMSO; higher = less toxic; settings: 72 h; 10000 nM
observed-property: cell viability (%)
Kindly provide the numeric value in % only, without the unit symbol.

* NCCc1cc[nH]n1 | 109

GET /values?readout=cell viability&system=Calu-3&item= Cc1cc2c(N3CCCC3)nc(N3CCCC3)nc2n1C
106

Form entry - test system: Calu-3; read-out: cell viability; compound: CC/C(=C(\c1ccc(O)cc1)c1ccc(OCCN(C)C)cc1)c1ccccc1
25.2

Request: cell viability, test system Calu-3, entry Nc1nc(N)nc(-c2cc(Cl)ccc2Cl)n1
99.1

Could you share what cell viability was measured for O=C(c1ccc(OCCN2CCCCC2)cc1)c1c(-c2ccc(O)cc2)sc2cc(O)ccc12 , tested on Calu-3?
79.5

I'm curious: which cell viability was measured for COC(=O)[C@H](Cc1ccccc1)NC(=O)[C@@H](N)CC(=O)O tested on Calu-3?
96.5

Record C[C@@H](C(=O)O)c1ccc(-c2ccccc2)c(F)c1 (racemic) [flurbiprofen-(+/-)] : what is its cell viability with Calu-3?
98.3

Calu-3 / cell viability / COc1nccc(-c2c(-c3ccc(F)cc3)ncn2[C@H]2CC[C@H](O)CC2)n1 : value?
85.6

Measured values drawn from the supplement of paper PMC13380429 for this set.
